- TARGET ENTITY: 5-lipoxygenase (Cavia porcellus, UniProt A0A286X958)
- Construct: 105,000×g for 60 min to obtain the cytosol fraction; endogenous in cells
- Sequence (A0A286X958 1-674): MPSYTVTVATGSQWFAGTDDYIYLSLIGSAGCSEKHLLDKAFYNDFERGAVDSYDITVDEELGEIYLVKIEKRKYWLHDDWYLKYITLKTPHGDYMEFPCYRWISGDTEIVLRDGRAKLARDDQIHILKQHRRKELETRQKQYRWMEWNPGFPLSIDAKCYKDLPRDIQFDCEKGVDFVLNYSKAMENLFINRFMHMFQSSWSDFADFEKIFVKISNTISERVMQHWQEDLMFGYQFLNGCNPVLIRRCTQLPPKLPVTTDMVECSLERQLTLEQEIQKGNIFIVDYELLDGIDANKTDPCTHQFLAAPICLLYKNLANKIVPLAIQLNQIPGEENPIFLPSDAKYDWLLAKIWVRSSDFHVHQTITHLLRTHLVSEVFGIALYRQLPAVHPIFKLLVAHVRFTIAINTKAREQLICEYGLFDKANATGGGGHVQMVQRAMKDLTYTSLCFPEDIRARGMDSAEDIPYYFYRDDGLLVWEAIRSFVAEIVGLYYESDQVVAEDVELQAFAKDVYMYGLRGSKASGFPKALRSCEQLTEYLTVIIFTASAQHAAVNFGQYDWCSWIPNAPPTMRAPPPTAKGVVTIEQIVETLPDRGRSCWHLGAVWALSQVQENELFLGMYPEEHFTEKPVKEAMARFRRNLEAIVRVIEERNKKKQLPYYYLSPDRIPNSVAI
- PROTOCOL: Assay of 5-lipoxygenase (PMNL cytosol fraction, 5-HETE formation)
- CONDITION LABEL: 3 min pre-incubation, then [1-14C]arachidonic acid 5 min, 37° C., 1% DMSO, 5-HETE counted
- Experimental: Assay of 5-lipoxygenase […] Male Hartley strain guinea pigs weighing 580~740 g received intraperitoneal injection of 2% casein in saline (5 ml/100 g body weight). After 16~18 hr, the guinea pigs were sacrificed by bleeding from the carotid artery. […] Radioactive zone of 5-HETE [5(S)-hydroxy-6,8,11,14-eicosatetraenoic acid] was detected by autoradiography, scraped from the TLC plates, and counted by a liquid scintillation counter. […]
pIC50: −log10 of the molar value.
Measured pIC50 values are reported for all entries that follow.

{"columns": ["COMPOUND", "pIC50"],
 "data": [
  ["COc1ccc2c(c1)c(CC(=O)OC(CN1CCN(CCO)CC1)c1ccccc1)c(C)n2C(=O)c1ccc(Cl)cc1 (stereo not drawn)", 5.77],
  ["COc1ccc2c(c1)c(CC(=O)O)c(C)n2C(=O)c1ccc(Cl)cc1", 3.62],
  ["COc1ccc2c(c1)c(CC(=O)OC(C)CN1CCN(CCCCCO)CC1)c(C)n2C(=O)c1ccc(Cl)cc1 (stereo not drawn)", 5.21],
  ["COc1ccc2c(c1)c(CC(=O)OC(C)CN1CCN(CCCO)CC1)c(C)n2C(=O)c1ccc(Cl)cc1 (stereo not drawn)", 5.16],
  ["COc1ccc2c(c1)c(CC(=O)OC(C)CN1CCN(CCCCCCO)CC1)c(C)n2C(=O)c1ccc(Cl)cc1 (stereo not drawn)", 5.33],
  ["COc1ccc2c(c1)c(CC(=O)OC(CN1CCN(CCCO)CC1)c1ccccc1)c(C)n2C(=O)c1ccc(Cl)cc1 (stereo not drawn)", 5.80],
  ["COc1ccc2c(c1)c(CC(=O)OC(C)(C)CN1CCN(CCCOC3CCCCO3)CC1)c(C)n2C(=O)c1ccc(Cl)cc1 (stereo not drawn)", 5.33],
  ["CC(C(=O)O)c1ccc2oc(-c3ccc(Cl)cc3)nc2c1 (stereo not drawn)", 4.62],
  ["COc1ccc2c(c1)c(CC(=O)OC(CN1CCN(CCCCCCCCCCO)CC1)c1ccccc1)c(C)n2C(=O)c1ccc(Cl)cc1 (stereo not drawn)", 6.05]
]}

From: patent US4696929A
